Molecular target: Inhibitor of nuclear factor kappa-B kinase subunit beta (Homo sapiens);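 note: reported as mean inhibition, from the GSK PKIS screening set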
Sequence (whole entry): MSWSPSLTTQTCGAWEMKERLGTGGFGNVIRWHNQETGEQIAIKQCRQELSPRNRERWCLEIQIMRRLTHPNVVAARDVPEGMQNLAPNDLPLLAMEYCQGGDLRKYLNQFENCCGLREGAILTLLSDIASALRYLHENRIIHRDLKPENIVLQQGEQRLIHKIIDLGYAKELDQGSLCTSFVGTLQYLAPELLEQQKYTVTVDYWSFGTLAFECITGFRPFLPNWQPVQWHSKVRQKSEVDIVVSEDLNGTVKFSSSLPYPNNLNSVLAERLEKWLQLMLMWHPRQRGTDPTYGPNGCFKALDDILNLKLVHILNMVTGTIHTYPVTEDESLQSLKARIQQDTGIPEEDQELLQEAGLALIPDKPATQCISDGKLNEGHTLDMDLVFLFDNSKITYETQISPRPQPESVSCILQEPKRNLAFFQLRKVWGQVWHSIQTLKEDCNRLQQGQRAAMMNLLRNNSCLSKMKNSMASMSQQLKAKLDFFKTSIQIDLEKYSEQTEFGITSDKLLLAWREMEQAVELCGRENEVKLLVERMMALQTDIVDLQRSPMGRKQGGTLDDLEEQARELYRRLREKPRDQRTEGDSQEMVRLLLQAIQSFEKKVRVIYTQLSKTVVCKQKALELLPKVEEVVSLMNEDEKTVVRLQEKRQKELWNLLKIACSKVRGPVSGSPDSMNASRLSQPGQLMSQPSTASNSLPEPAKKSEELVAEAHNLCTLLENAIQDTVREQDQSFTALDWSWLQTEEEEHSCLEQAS
Settings: at 1 µM
Here, each record is paired with measured inhibition data.
Write the value in % as a bare number.

Study these solved cases before continuing.
structure_smiles_string | endpoint_label | number
CN(C)CCOc1ccc(-c2cc(-c3ccc4c(c3)CCC4=NO)c(-c3ccncc3)o2)cc1 | inhibition | -1.92
O=C(NCC1CC1)c1ccc(-c2cccc(C(=O)NC3CC3)c2)cc1 | inhibition | 0.13
Fc1ccc(-c2nc3n(c2-c2ccncc2)CCS3)cc1 | inhibition | 4.63
NS(=O)(=O)c1ccc(Nc2cc(-c3ccc(O)c(F)c3)n[nH]2)cc1 | inhibition | 0.06

Query: Please look at this molecule and report its inhibition: Cc1ccc(C(=O)NC(C)C)cc1-c1ccc(C(=O)NCC2CC2)cc1
Response: -1.83

Query: Please look at this molecule and report its inhibition: COc1ccc(C2=C(N3CCc4ccccc43)C(=O)NC2=O)cc1
Response: 3.83

Value source: ChEMBL document CHEMBL1961873
